So I've got a bunch of compounds here, and I need their pIC50 values.
- Test system: HL-60
- PROTOCOL DESCRIPTION: Antiproliferative activity of compound against HL60 leukemia cells
- Assay type: functional, cell-based
- CONDITION INFO: Homo sapiens
pIC50 here: minus log base 10 of the concentration, concentration in moles per litre.

[ask] Please give the documented pIC50 of NCc1ccc(NC(=O)c2cc(NC(=O)c3ccc(CN)cc3)cn2Cc2ccccc2)cc1
[reply] 5.09

[ask] Output pIC50 of NCc1ccc(NC(=O)c2cc(NC(=O)c3ccc(CN)cc3)c[nH]2)cc1
[reply] 5.77

[ask] Find the measured pIC50 of Cn1cc(NC(=O)c2ccc(CN)cc2)cc1C(=O)Nc1ccc(CN)cc1 and report it.
[reply] 5.27
